Hey, just so you know, these numbers are from patent US11168088B2.

tested_on: CDK2 (Homo sapiens (Human))
pIC50: −log10 of the molar value.
result_type: pIC50

Use the examples below as a reference point.
- CCn1nc2c(c1C(C)C)-c1nc(Nc3ccc(N4CCNCC4)cn3)ncc1CC2: 5.32
- CC(C)c1c2c(nn1C)C(C)c1cnc(Nc3ccc(N4CCNCC4)cn3)nc1-2 (centres unmarked): 6.29
- CCc1nc2c(n1C1CCCC1)-c1nc(Nc3ccc(N4CCNCC4)cn3)ncc1C2: 5.76
- Cc1c2c(nn1C)CCc1cnc(Nc3ccc(N4CCN(C)CC4)cn3)nc1-2: 6.17
- CCc1nc2c(n1C(C)C)-c1nc(Nc3ccc(CN4CCN(CC)CC4)cn3)ncc1CC2: 5.94

I = c1cc(Nc2ncc3c(n2)-c2c(nc(C4CC4)n2C2CCCC2)C3)ncc1N1CCNCC1
II = CCn1nc2c(c1C(C)C)-c1nc(Nc3ccc(N4CCNCC4)cn3)ncc1CC2(C)C
III = CCc1nc2c(n1CC)-c1nc(Nc3ccc(N4CCNCC4)cn3)ncc1C2
**Query** Order these by pIC50, descending, and give the full ranking. Your task in answering is to list the labels in the requested order.
**Result** II, I, III
